- PROCEDURE_SUMMARY: Hematology assays in cynomolgus monkeys (Example 45)
- Assay type: in vivo
- ASSAY_SETUP: day −5; escalating dose regimen
- Protocol: Groups, each consisting of two male and three female monkeys, were injected subcutaneously with ISIS 416838, ISIS 416850, ISIS 416858, ISIS 416864, or ISIS 417002 in escalating doses. […] Body weights were measured weekly. […]
# maps each entry to its hemoglobin
Entry rule: numbers only, all in g/dL.

- SUBSTANCE: "ISIS 417002: MOE gapmer, nucleobases 1275 to 1318 of SEQ ID NO: 1 (Table 8) (antisense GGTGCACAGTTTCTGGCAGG; MOE gapmer, wing and gap sizes not given here)"
  hemoglobin / g/dL: 13.2

q: GET /values?readout=hemoglobin&item= ISIS 416858: MOE gapmer, nucleobases 1275 to 1318 of SEQ ID NO: 1 (Table 8) (antisense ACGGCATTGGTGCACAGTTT; MOE gapmer, wing and gap sizes not given here)
a: 13.2

q: Report hemoglobin for ISIS 416838: MOE gapmer, nucleobases 1018 to 1042 of SEQ ID NO: 1 (Table 6) (antisense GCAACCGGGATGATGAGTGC; MOE gapmer, wing and gap sizes not given here) please.
a: 13.1

###

- PROCEDURE_SUMMARY: Tolerability in Sprague-Dawley rats: hematology assays (Example 35)
- ASSAY_SETUP: 50 mg/kg s.c. twice per week for 6 weeks
QUANTITY: monocytes (%)
Provide only the numeric value, understood in %.

q: Look up monocytes for this substance: ISIS 416838: MOE gapmer, nucleobases 1018 to 1042 of SEQ ID NO: 1 (Table 6) (antisense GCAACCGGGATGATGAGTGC; MOE gapmer, wing and gap sizes not given here)
a: 6

q: Quick one: monocytes of ISIS 416850: MOE gapmer, nucleobases 1275 to 1318 of SEQ ID NO: 1 (Table 8) (antisense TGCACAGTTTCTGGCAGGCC; MOE gapmer, wing and gap sizes not given here) ?
a: 11

q: Tell me the measured monocytes of ISIS 416864: MOE gapmer, nucleobases 1275 to 1318 of SEQ ID NO: 1 (Table 8) (antisense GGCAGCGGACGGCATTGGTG; MOE gapmer, wing and gap sizes not given here) , please.
a: 29

q: Using the record for ISIS 416858: MOE gapmer, nucleobases 1275 to 1318 of SEQ ID NO: 1 (Table 8) (antisense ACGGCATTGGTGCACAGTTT; MOE gapmer, wing and gap sizes not given here) , report its monocytes.
a: 10

q: Using the record for ISIS 417002: MOE gapmer, nucleobases 1275 to 1318 of SEQ ID NO: 1 (Table 8) (antisense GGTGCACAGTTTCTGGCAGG; MOE gapmer, wing and gap sizes not given here) , report its monocytes.
a: 25

###

- PROCEDURE_SUMMARY: Body and organ weights of cynomolgus monkeys (Example 46)
- Type: in vivo
- ASSAY_SETUP: day 43
Strand notation (5' to 3'): a small letter for the sugar, then the base; units joined by * are phosphorothioate-linked, units joined directly phosphodiester-linked; [ ] holds rarer units or linkages, { } end groups; capitals alone tell only the bases. e = 2'-O-(2-methoxyethyl) (MOE); [5mC] = 5-methylcytosine; d = 2'-deoxy (DNA)
QUANTITY: body weight
Lab note: write values as number then unit, every time.

Example substances with recorded body weight:
- SUBSTANCE: "ISIS 445522: 5-8-5 or 6-8-6 MOE microwalk gapmer (Table 44) (antisense eG*e[5mC]*eA*e[5mC]*eA*dG*dT*dT*dT*d[5mC]*dT*dG*dG*e[5mC]*eA*eG*eG*e[5mC])"
  RESULT: "2142 g"
- SUBSTANCE: "ISIS 449711: 3-8-3, 4-8-4, 2-10-2, 3-10-3 or 4-10-4 MOE microwalk gapmer (Table 46) (antisense eA*e[5mC]*dA*dG*dT*dT*dT*d[5mC]*dT*dG*dG*d[5mC]*eA*eG)"
  RESULT: "2251 g"

q: Name the recorded body weight for ISIS 416858: MOE gapmer, nucleobases 1275 to 1318 of SEQ ID NO: 1 (Table 8) (antisense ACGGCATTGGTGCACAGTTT; MOE gapmer, wing and gap sizes not given here) .
a: 2238 g

###

- PROCEDURE_SUMMARY: Hematology assays in cynomolgus monkeys (Example 45)
- Type: in vivo
- ASSAY_SETUP: day 8
Each entry below carries its reported reticulocytes.
Please reply with the bare figure in % and do not write the unit itself.

- SUBSTANCE: "ISIS 416850: MOE gapmer, nucleobases 1275 to 1318 of SEQ ID NO: 1 (Table 8) (antisense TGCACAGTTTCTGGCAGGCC; MOE gapmer, wing and gap sizes not given here)"
  reticulocytes [%]: 1.2

q: Please report the recorded reticulocytes for ISIS 416864: MOE gapmer, nucleobases 1275 to 1318 of SEQ ID NO: 1 (Table 8) (antisense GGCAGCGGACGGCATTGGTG; MOE gapmer, wing and gap sizes not given here) .
a: 0.8

q: Field request: reticulocytes | item: ISIS 416838: MOE gapmer, nucleobases 1018 to 1042 of SEQ ID NO: 1 (Table 6) (antisense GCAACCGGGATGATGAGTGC; MOE gapmer, wing and gap sizes not given here)
a: 1.2

q: Dear colleague, I am looking for the recorded reticulocytes of the following substance: ISIS 417002: MOE gapmer, nucleobases 1275 to 1318 of SEQ ID NO: 1 (Table 8) (antisense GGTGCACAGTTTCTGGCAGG; MOE gapmer, wing and gap sizes not given here)
a: 1.1

q: Can you look up the measured reticulocytes of ISIS 416858: MOE gapmer, nucleobases 1275 to 1318 of SEQ ID NO: 1 (Table 8) (antisense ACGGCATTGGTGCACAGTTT; MOE gapmer, wing and gap sizes not given here) for me?
a: 1.2

###

Organ weights, Kidney values by entry
- PROCEDURE_SUMMARY: Body and organ weights of cynomolgus monkeys (Example 45);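 further: absolute organ weight in grams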
- Format: in vivo
- ASSAY_SETUP: after the animals were euthanized
- Protocol: Groups, each consisting of two male and three female monkeys, were injected subcutaneously with ISIS 416838, ISIS 416850, ISIS 416858, ISIS 416864, or ISIS 417002 in escalating doses. […] Body weights were measured weekly. […]
Answer with a number only, understood to be in g.

# count of solved cases: 3
- SUBSTANCE: "ISIS 416858: MOE gapmer, nucleobases 1275 to 1318 of SEQ ID NO: 1 (Table 8) (antisense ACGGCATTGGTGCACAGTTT; MOE gapmer, wing and gap sizes not given here)"
  UNIT_DESCRIPTOR: "g"
  Organ weights, Kidney: 13
- SUBSTANCE: "ISIS 416864: MOE gapmer, nucleobases 1275 to 1318 of SEQ ID NO: 1 (Table 8) (antisense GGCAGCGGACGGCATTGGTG; MOE gapmer, wing and gap sizes not given here)"
  UNIT_DESCRIPTOR: "g"
  Organ weights, Kidney: 14
- SUBSTANCE: "ISIS 417002: MOE gapmer, nucleobases 1275 to 1318 of SEQ ID NO: 1 (Table 8) (antisense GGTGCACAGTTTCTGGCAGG; MOE gapmer, wing and gap sizes not given here)"
  UNIT_DESCRIPTOR: "g"
  Organ weights, Kidney: 15

Next item in the queue.
q: For the substance shown here, ISIS 416838: MOE gapmer, nucleobases 1018 to 1042 of SEQ ID NO: 1 (Table 6) (antisense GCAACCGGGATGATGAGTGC; MOE gapmer, wing and gap sizes not given here) , give the reported Organ weights, Kidney.
a: 12

###

- PROCEDURE_SUMMARY: Hematology assays in cynomolgus monkeys (Example 46)
- Type: in vivo
- ASSAY_SETUP: Day 55
- Procedure: Groups, each consisting of two male and two female monkeys, were injected subcutaneously with 25 mg/kg of ISIS 416850, ISIS 449709, ISIS 445522, ISIS 449710, ISIS 449707, ISIS 449711, ISIS 449708, 416858, and ISIS 445531. […] Body weights were taken 14 days and 7 days before the start of treatment and were then measured weekly throughout the treatment period. […]
Strand notation (5' to 3'): a small letter for the sugar, then the base; units joined by * are phosphorothioate-linked, units joined directly phosphodiester-linked; [ ] holds rarer units or linkages, { } end groups; capitals alone tell only the bases. e = 2'-O-(2-methoxyethyl) (MOE); [5mC] = 5-methylcytosine; d = 2'-deoxy (DNA)
Known MCH of a selection of substances
Report only the number, with the unit pg understood.

Study these solved cases before continuing.
- SUBSTANCE: "ISIS 445522: 5-8-5 or 6-8-6 MOE microwalk gapmer (Table 44) (antisense eG*e[5mC]*eA*e[5mC]*eA*dG*dT*dT*dT*d[5mC]*dT*dG*dG*e[5mC]*eA*eG*eG*e[5mC])"
  NUMBER: 22.2
- SUBSTANCE: "ISIS 449710: 3-8-3, 4-8-4, 2-10-2, 3-10-3 or 4-10-4 MOE microwalk gapmer (Table 46) (antisense e[5mC]*eA*e[5mC]*dA*dG*dT*dT*dT*d[5mC]*dT*dG*dG*d[5mC]*eA*eG*eG)"
  NUMBER: 22.7
- SUBSTANCE: "ISIS 449707: 3-8-3, 4-8-4, 2-10-2, 3-10-3 or 4-10-4 MOE microwalk gapmer (Table 46) (antisense e[5mC]*eA*e[5mC]*eA*dG*dT*dT*dT*d[5mC]*dT*dG*dG*e[5mC]*eA*eG*eG)"
  NUMBER: 21.9
- SUBSTANCE: "ISIS 449709: 3-8-3, 4-8-4, 2-10-2, 3-10-3 or 4-10-4 MOE microwalk gapmer (Table 46) (antisense eG*e[5mC]*eA*e[5mC]*dA*dG*dT*dT*dT*d[5mC]*dT*dG*dG*d[5mC]*eA*eG*eG*e[5mC])"
  NUMBER: 22.0

// next item, MCH requested
q: Fill in: MCH of ISIS 445531: 5-8-5 or 6-8-6 MOE microwalk gapmer (Table 44) (antisense eG*eG*e[5mC]*eA*eT*dT*dG*dG*dT*dG*d[5mC]*dA*d[5mC]*eA*eG*eT*eT*eT) is ___
a: 21.7
